The reported measurements were obtained from the RNAGym collection of RNA variant scans (doi:10.1073/pnas.2313332121).

B1: TPR t1 (parent)
chain: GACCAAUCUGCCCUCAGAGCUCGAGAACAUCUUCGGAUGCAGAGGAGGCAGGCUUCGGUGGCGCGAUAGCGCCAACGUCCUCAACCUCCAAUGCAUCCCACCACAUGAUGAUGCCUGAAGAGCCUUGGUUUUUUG

Variants of: B1
Assay: polymerase ribozyme fitness, log enrichment relative to wild type (log ratio); higher = more active; in vitro selection for triplet polymerase activity
Classification field: enter Condition met for polymerase ribozyme fitness (log ratio) values not below -2, Condition not met for values below it.

change	assigned-category
C72U A74C	Condition met
A6G G63U C124A G128U	Condition met
G39U G57A C80A	Condition not met
G44U G65A	Condition not met
A18C A26G G71A G93A U112C G122A	Condition not met
A105G U112C	Condition met
C49A G52A G57A U78A	Condition met
G77U U96A	Condition met
A84C C123U U133G	Condition met
A41C G45U C124A U126G	Condition met
C8G G44C G60A	Condition met
A26U C56A U59C	Condition not met
C79U G120U	Condition met
C11U U78A C97A	Condition not met
C8U C56U C70A	Condition not met
A26G G69U	Condition not met
A75U C104U U106A	Condition met
A41C C72A U92G G120U U129C	Condition not met
G45U A50U G52U G58A	Condition not met
C13U A41G A43C U87C G113A G122U	Condition met
A84G U116G	Condition not met
